// values below are reported self-cleavage kobs at 10000 uM GlcN6P
B1: glmS ribozyme (parent)
chain: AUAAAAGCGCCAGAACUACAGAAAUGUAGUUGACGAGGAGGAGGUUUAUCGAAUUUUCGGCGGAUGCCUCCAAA

Variants of: B1
Experiment: self-cleavage kobs at 10000 uM GlcN6P; higher = faster cleavage; RNA array
Conditions: with glucosamine-6-phosphate
This sample holds only a part of the variants without activity.
Write it as a number; the unit s⁻¹ goes unstated.

G40A U65A
0.00106
A33C U54G
0.00043
C50G G59U C68G
7.83e-05

Now look at this one.
input: Which value of self-cleavage kobs at 10000 uM GlcN6P has been reported for A42G C58U in the records?
output: 9.52e-05

Numbers sourced from the supplement of paper PMC7125110.
